# target-entity: hNav1.7 (Homo sapiens)
# Construct: host or cells: CHO
# protocol-description: Manual patch clamp experiment hNav1.7 (CHO-hNav1.7 stable cell line)
# Assay type: cell-based
# conditions-used: compound at 100 nM; read-out: Inhibition of Nav1.7 100 nM(%)
Parameter inhibition at 0.1 µM: see the listing below.

| compound | inhibition at 0.1 µM [%] |
| --- | --- |
| O=C(NS(=O)(=O)C1CC1)c1cc(Cl)c(CN2CCN(c3ccc(C(F)(F)F)cc3)CC2)cc1F [Compound Z-174] | 78 |
| Cc1cc(N2CCN(Cc3cc(F)c(C(=O)NS(=O)(=O)C4CC4)cc3Cl)CC2)ccc1Cl [Compound Z-164] | 89.7 |
| CS(=O)(=O)NC(=O)c1cc(C2CC2)c(CN2CCN(Cc3cc(Cl)cc(Cl)c3)CC2)cc1F [Compound C11, reference compound] | 23.1 |
| O=C(NS(=O)(=O)C1CC1)c1cc(Cl)c(CN2CCN(Cc3ccc(Cl)cc3)CC2)cc1F [Compound C6, reference compound] | 11.2 |
| O=C(NS(=O)(=O)C1CC1)c1cc(Cl)c(OC[C@H]2CCCN2C(=O)c2ccc(Cl)cc2)cc1F [Compound C9, reference compound] | 5.49 |
| Cc1cc(C(=O)NS(=O)(=O)C2CC2)c(F)cc1OC[C@H]1CCCN1c1ccc(C(F)(F)F)cn1 [Compound Z-195] | 76.7 |
| Cc1cc(N2CCN(Cc3cc(F)c(C(=O)NS(=O)(=O)C4CC4)cc3Cl)CC2)cc(C)c1F [Compound Z-180] | 70.4 |

====

# target-entity: hNav1.7 (Homo sapiens, UniProt Q15858)
# Construct: host or cells: CHO
# Sequence (Q15858 whole entry): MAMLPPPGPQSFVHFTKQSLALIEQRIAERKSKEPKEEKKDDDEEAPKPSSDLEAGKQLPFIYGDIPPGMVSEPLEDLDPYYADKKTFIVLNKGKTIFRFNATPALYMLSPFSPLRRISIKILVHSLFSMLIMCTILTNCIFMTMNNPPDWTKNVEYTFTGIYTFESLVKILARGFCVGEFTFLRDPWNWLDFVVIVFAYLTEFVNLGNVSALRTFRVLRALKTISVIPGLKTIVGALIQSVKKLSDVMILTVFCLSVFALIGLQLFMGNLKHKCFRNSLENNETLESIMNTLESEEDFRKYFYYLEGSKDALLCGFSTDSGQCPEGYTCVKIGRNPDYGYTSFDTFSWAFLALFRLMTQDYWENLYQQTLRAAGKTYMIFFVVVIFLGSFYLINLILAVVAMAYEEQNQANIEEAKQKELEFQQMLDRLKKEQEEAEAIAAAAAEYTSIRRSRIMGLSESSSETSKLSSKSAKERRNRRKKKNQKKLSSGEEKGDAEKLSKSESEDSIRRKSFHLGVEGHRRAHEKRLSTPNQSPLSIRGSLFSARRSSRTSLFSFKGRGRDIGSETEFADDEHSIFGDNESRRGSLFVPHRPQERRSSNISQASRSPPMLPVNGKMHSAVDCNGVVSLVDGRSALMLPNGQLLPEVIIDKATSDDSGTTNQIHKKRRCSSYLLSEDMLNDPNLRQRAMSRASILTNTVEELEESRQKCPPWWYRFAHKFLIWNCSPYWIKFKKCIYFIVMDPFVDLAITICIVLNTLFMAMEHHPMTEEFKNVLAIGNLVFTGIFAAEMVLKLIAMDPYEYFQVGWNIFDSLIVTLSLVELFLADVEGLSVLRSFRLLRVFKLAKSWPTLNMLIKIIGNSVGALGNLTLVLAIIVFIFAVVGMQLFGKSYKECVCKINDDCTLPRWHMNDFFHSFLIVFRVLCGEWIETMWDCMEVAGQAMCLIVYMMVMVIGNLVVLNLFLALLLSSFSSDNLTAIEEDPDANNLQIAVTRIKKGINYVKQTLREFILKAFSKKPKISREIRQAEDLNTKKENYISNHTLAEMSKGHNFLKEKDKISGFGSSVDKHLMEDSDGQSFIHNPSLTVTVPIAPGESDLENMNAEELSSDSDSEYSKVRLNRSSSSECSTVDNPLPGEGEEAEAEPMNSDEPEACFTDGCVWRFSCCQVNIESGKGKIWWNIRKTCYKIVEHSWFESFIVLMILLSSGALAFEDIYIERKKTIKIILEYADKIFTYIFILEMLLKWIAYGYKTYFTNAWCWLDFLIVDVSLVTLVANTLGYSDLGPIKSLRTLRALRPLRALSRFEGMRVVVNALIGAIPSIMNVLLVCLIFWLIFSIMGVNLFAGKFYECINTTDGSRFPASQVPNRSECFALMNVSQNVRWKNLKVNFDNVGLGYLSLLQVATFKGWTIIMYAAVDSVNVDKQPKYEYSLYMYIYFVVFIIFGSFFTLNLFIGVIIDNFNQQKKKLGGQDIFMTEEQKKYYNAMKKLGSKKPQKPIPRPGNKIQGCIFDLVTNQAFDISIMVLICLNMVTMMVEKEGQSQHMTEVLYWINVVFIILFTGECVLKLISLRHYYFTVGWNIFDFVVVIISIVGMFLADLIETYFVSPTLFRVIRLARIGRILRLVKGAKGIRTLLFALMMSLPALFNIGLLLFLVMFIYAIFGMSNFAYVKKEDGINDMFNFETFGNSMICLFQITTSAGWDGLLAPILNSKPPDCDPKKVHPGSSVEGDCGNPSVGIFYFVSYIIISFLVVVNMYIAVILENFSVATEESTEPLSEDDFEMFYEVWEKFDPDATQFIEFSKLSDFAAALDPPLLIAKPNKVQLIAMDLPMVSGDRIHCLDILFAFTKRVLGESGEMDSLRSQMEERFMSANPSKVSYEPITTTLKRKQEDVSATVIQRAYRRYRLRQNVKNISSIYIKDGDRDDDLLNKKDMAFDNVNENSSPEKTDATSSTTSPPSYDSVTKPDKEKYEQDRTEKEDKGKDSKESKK
# protocol-description: Manual patch clamp experiment hNav1.7 (CHO-hNav1.7 stable cell line)
# Format: cell-based
# conditions-used: read-out: Nav1.7(IC50/nM)

| compound | target-entity | IC50 (nM) |
| --- | --- | --- |
| Cc1cc(N2CCN(Cc3cc(F)c(C(=O)NS(=O)(=O)C4CC4)cc3Cl)CC2)ccc1Cl [Compound Z-164] | hNav1.7 (Homo sapiens, UniProt Q15858) | 24.6 |

====

# protocol-description: Metabolism stability assay, human liver microsomes
# Type: in vitro ADME
# conditions-used: pH 7.4
Parameter half-life at 1 µM: see the listing below.

| compound | half-life at 1 µM (h) |
| --- | --- |
| O=C(NS(=O)(=O)C1CC1)c1cc(Cl)c(CN2CCN(c3ccc(C4CC4)c(Cl)c3)CC2)cc1F | 4.67 |
| O=C(NS(=O)(=O)C1CC1)c1cc(Cl)c(CN2CCN(c3ccc(OC(F)(F)F)cn3)CC2)cc1F | 7.84 |
| CS(=O)(=O)NC(=O)c1cc(Cl)c(CN2CCN(c3ccc(C4CC4)c(Cl)c3)CC2)cc1F [Compound C12, reference compound] | 0.37 |
| O=C(NS(=O)(=O)C1CC1)c1cc(Cl)c(CN2CCN(c3ccc(OC(F)(F)F)c(Cl)c3)CC2)cc1F | 420 |
| C[C@@H]1CN(c2ccc(Cl)c(Cl)c2)CCN1Cc1cc(F)c(C(=O)NS(=O)(=O)C2CC2)cc1Cl | 13.1 |
| Cc1cc(N2CCN(Cc3cc(F)c(C(=O)NS(C)(=O)=O)cc3Cl)CC2)ccc1Cl [Compound C13, reference compound] | 0.208 |
| O=C(NS(=O)(=O)C1CC1)c1cc(Cl)c(OC2CCN(c3ccc(Cl)c(Cl)c3)CC2)cc1F | 5.36 |

====

# target-entity: hNav1.7 (Homo sapiens)
# Construct: host or cells: CHO
# protocol-description: Manual patch clamp experiment hNav1.7 (CHO-hNav1.7 stable cell line)
# Format: cell-based
# conditions-used: compound at 1000 nM; read-out: Inhibition of Nav1.7 1000 nM(%)

| compound | target-entity | inhibition at 1 µM [%] |
| --- | --- | --- |
| CCc1cc(N2CCN(Cc3cc(F)c(C(=O)NS(=O)(=O)C4CC4)cc3Cl)CC2)ccc1Cl | hNav1.7 (Homo sapiens) | 98.7 |
| Cc1cc(N2CCN(Cc3cc(F)c(C(=O)NS(=O)(=O)C4CC4)cc3Cl)CC2)c(F)cc1Cl | hNav1.7 (Homo sapiens) | 100 |
| Cc1c(F)ccc(N2CCN(Cc3cc(F)c(C(=O)NS(=O)(=O)C4CC4)cc3Cl)CC2)c1Cl | hNav1.7 (Homo sapiens) | 98.5 |
| O=C(NS(=O)(=O)C1CC1)c1cc(Cl)c(CN2CCN(Cc3ccc(Cl)cc3)CC2)cc1F [Compound C6, reference compound] | hNav1.7 (Homo sapiens) | 57.2 |
| O=C(NS(=O)(=O)C1CC1)c1cc(Cl)c(CN2CCN(C(=O)c3ccc(Cl)cc3)CC2)cc1F [Compound C5, reference compound] | hNav1.7 (Homo sapiens) | 36.8 |
| CCc1cc(C(=O)NS(=O)(=O)C2CC2)c(F)cc1CN1CCN(c2cc(Cl)cc(Cl)c2)CC1 | hNav1.7 (Homo sapiens) | 98.4 |
| O=C(NS(=O)(=O)C1CC1)c1cc(Cl)c(CN2CCN(c3ccc(C(F)(F)F)cc3)CC2)cc1F | hNav1.7 (Homo sapiens) | 95.1 |
| Cc1c(Cl)ccc(N2CCN(Cc3cc(F)c(C(=O)NS(=O)(=O)C4CC4)cc3Cl)CC2)c1Cl | hNav1.7 (Homo sapiens) | 100 |
| O=C(NS(=O)(=O)C1CC1)c1cc(Cl)c(OC2CCN(c3ccc(Cl)c(Cl)c3)CC2)cc1F | hNav1.7 (Homo sapiens) | 96.1 |
| Cc1ccc(N2CCN(Cc3cc(F)c(C(=O)NS(=O)(=O)C4CC4)cc3Cl)CC2)cc1Cl | hNav1.7 (Homo sapiens) | 98 |
| C[C@@H]1CN(c2ccc(Cl)c(Cl)c2)CCN1Cc1cc(F)c(C(=O)NS(=O)(=O)C2CC2)cc1Cl | hNav1.7 (Homo sapiens) | 97.2 |
| Cc1c(F)c(F)cc(N2CCN(Cc3cc(F)c(C(=O)NS(=O)(=O)C4CC4)cc3Cl)CC2)c1F | hNav1.7 (Homo sapiens) | 97.6 |
| CCc1cc(C(=O)NS(=O)(=O)C2CC2)c(F)cc1CN1CCN(c2ccc(Cl)c(Cl)c2)CC1 | hNav1.7 (Homo sapiens) | 95 |
| Cc1cc(N2CCN(Cc3cc(F)c(C(=O)NS(=O)(=O)C4CC4)cc3Cl)CC2)cc(C)c1F | hNav1.7 (Homo sapiens) | 97.8 |
| O=C(NS(=O)(=O)C1CC1)c1cc(Cl)c(CN2CCN(c3ccc(C4CC4)c(Cl)c3)CC2)cc1F | hNav1.7 (Homo sapiens) | 100 |

====

# target-entity: hNav1.7 (Homo sapiens)
# Construct: host or cells: CHO
# protocol-description: Manual patch clamp experiment hNav1.7 (CHO-hNav1.7 stable cell line)
# Format: cell-based
# conditions-used: compound at 100 nM; read-out: Inhibition of Nav1.7 100 nM(%)
Parameter inhibition at 0.1 µM: see the listing below.
quantity: inhibition at 0.1 µM

| compound | target-entity | reported-value |
| --- | --- | --- |
| Cc1c(Cl)ccc(N2CCN(Cc3cc(F)c(C(=O)NS(=O)(=O)C4CC4)cc3Cl)CC2)c1Cl | hNav1.7 (Homo sapiens) | 89.7% |
| O=C(NS(=O)(=O)C1CC1)c1cc(Cl)c(CN2CCN(C(=O)c3ccc(Cl)cc3)CC2)cc1F [Compound C5, reference compound] | hNav1.7 (Homo sapiens) | 17.2% |
| CCc1cc(C(=O)NS(=O)(=O)C2CC2)c(F)cc1CN1CCN(c2ccc(Cl)c(F)c2)CC1 | hNav1.7 (Homo sapiens) | 72.6% |
| Cc1cc(C(=O)N2CCN(Cc3cc(F)c(C(=O)NS(=O)(=O)C4CC4)cc3Cl)CC2)ccc1Cl [Compound C3, reference compound] | hNav1.7 (Homo sapiens) | 17.6% |
| O=C(NS(=O)(=O)C1CC1)c1cc(Cl)c(OC[C@H]2CCCN2Cc2ccc(C(F)(F)F)cc2)cc1F [Compound C8, reference compound] | hNav1.7 (Homo sapiens) | 47% |
| CS(=O)(=O)NC(=O)c1cc(C2CC2)c(CN2CCN(Cc3ccc(Cl)c(Cl)c3)CC2)cc1F [Compound C2, reference compound] | hNav1.7 (Homo sapiens) | 49.2% |
| O=C(NS(=O)(=O)C1CC1)c1cc(C2CC2)c(OC[C@H]2CCCN2c2ccc(C(F)(F)F)cn2)cc1F | hNav1.7 (Homo sapiens) | 92.2% |
| O=C(NS(=O)(=O)C1CC1)c1cc(Cl)c(CN2CCN(c3ccc(C4CC4)c(Cl)c3)CC2)cc1F | hNav1.7 (Homo sapiens) | 93.8% |
